The reported measurements were obtained from paper PMC5540273.

Documented %Inh across a set of compounds
test system: DYRK1B; details: concentration: 1 μM, replicates: in singlicate; n = 1;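 further: KINOMEscan kinase panel screen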
Field note: include the unit after the figure.

The cases that follow already have their %Inh on record.
{"columns": ["compound", "%Inh"],
 "data": [
  ["Cl.O=S(=O)(c1cccc(F)c1)c1ccc(Nc2ncnc3cc(Br)sc23)cc1Cl [GSK306886]", "0%"],
  ["CCc1nc(-c2cccc(N(C)S(=O)(=O)c3ccccc3)c2)c(-c2ccnc(Nc3ccc(N4CCN(C(C)=O)CC4)nc3)n2)s1 [GSK1645895]", "0%"],
  ["Cl.c1ccc(Cn2ncc3cc(Nc4ncnc5ccccc45)ccc32)cc1 [GW273749]", "8%"],
  ["Clc1cc(Nc2ncnc3cc[nH]c23)ccc1OCc1ccccn1", "17%"],
  ["FC(F)(F)c1ccc(-c2cc(-c3c[nH]nc3-c3ccccn3)ccn2)cc1 [GW599550]", "23%"]
]}

Return %Inh measured with DYRK1B given this compound: `OCCOCCn1ccc2ncnc(Nc3ccc(Oc4cccc(Cl)c4)c(Cl)c3)c21` 0%

CS(=O)(=O)CCNCc1ccc(-c2ccc3ncnc(Nc4ccc(OCc5ccccc5)c(Cl)c4)c3c2)o1.Cl [GW574783] ? 0%

How about this compound: Cc1ccc(NC(=O)c2cccc(C#N)c2)cc1-c1ccc(C(=O)Nc2ccncc2)cc1 [GSK1398463] 19%

Another compound to check: `O=C(Nc1ccccc1)Nc1ccc(Oc2ccc3nccn3n2)cc1` 30%

* * *

system: AKT2; conditions: concentration: 1 μM, replicates: in singlicate; n = 1
Simple rule here: %Inh less than 7% is criterion met, otherwise criterion not met.

Here's what some known entries look like.
{"columns": ["molecule", "tested_system", "assigned_category"],
 "data": [
  ["c1ccc(-c2ccc3c(-c4ccnc(Nc5ccc6c(c5)OCCO6)n4)cnn3n2)cc1", "AKT2", "criterion not met"],
  ["O=C(Nc1ccccc1F)NC1CCN(c2ccnc(Nc3ccc(F)cc3)n2)C1 (stereo not shown)", "AKT2", "criterion not met"],
  ["CSc1ccc(NC2=C(c3ccccc3Cl)C(=O)NC2=O)cc1", "AKT2", "criterion not met"]
]}

# strict comparison: is reported %Inh < 7%? input = `Nc1nc(-c2ccccn2)c(-c2ccnc3ccccc23)s1` criterion met

Please give the result for `Cc1cccc(-c2nc(Nc3ccc4[nH]nnc4c3)c3ccccc3n2)n1` too. criterion met

Further, for `NC(=O)c1sc(-n2cnc3ccccc32)cc1OCc1ccccc1F` ? criterion met

// repeat for `Cc1ccc(C)c(NC(=O)NCCNc2ccnc(Nc3ccc(F)cc3)n2)c1` and report criterion met

Param item: `Fc1ccc(-c2ncn(CCCNCc3ccccc3)c2-c2ccncc2)cc1` criterion not met

And `CS(=O)(=O)CCNCc1ccc(-c2ccc3ncnc(Nc4ccc(OCc5ccccc5)c(Cl)c4)c3c2)o1.Cl` ? criterion not met

* * *

Entries and their measured %Inh follow.
test system: MKNK2; details: concentration: 1 μM, replicates: in singlicate; n = 1
Just so you know, I need the unit written after the number.

{"columns": ["mol", "tested_system", "test_result"],
 "data": [
  ["Nc1nc(-c2cccnc2)c(-c2ccnc3ccccc23)s1", "MKNK2", "0%"],
  ["Cc1ccc(NC(=O)c2cccc(C#N)c2)cc1-c1ccc(C(=O)Nc2ccncc2)cc1", "MKNK2", "23%"]
]}

// returns reported %Inh for input `O=C(c1ccc(-c2cc(-c3c[nH]nc3-c3ccccn3)ccn2)cc1)N1CCCC1` 0%

Now the same for `Nc1nc(-c2ccc3c(N)n[nH]c3c2)cc(N2CCCCC2)n1` 23%

Please answer likewise for `Cl.Fc1ccccc1COc1ccc(Nc2ncnc3ccc(-c4nnc(C(F)(F)F)o4)cc23)cc1Cl` 0%

* * *

# maps each entry to its %Inh
test system: PAK7; conditions: concentration: 1 μM, replicates: in singlicate; n = 1
Dear colleague, please return just the value in %, with no unit written.

Example cases with answers are listed next.
{"columns": ["molecule", "measure_name", "measurement_unit", "test_result"],
 "data": [
  ["O=c1cc(N2CCOCC2)nc2n(Cc3cccc(Cl)c3)ccn12 [GSK2296823]", "%Inh", "%", 53],
  ["Fc1ccc(Nc2nccc(-c3c(-c4ccc(Cl)cc4)nn4ncccc34)n2)cc1F [GW829058]", "%Inh", "%", 14]
]}

Consider now this further molecule.
Quick check: %Inh of `Cn1ccc2ncnc(Oc3ccc(NC(=O)Nc4cccnc4)c(Cl)c3)c21` ? 0

* * *

test system: DLK; construct: gene MAP3K12; details: concentration: 1 μM, replicates: in singlicate; n = 1
compounds and their reported %Inh
Note: unit % is implicit; provide only the numeric part.

{"columns": ["compound", "%Inh / %"],
 "data": [
  ["Cc1cc(N2CCC(NS(=O)(=O)c3ccc(F)cc3)CC2)nc(Nc2cccc(C#N)c2)n1.O=C(O)C(F)(F)F", 47],
  ["COc1cc2ncnc(Nc3ccc(OCc4ccccc4Br)c(Cl)c3)c2cc1OC.Cl", 3],
  ["CC(C)(C)c1ccc(-n2cnc3c(N)ncnc32)cc1", 0],
  ["Nc1n[nH]c2nnc(-c3ccccc3)cc12", 0]
]}

Which %Inh is reported for this compound? `CS(=O)(=O)CCNCc1nc(-c2ccc3ncnc(Nc4ccc(OCc5cccc(F)c5)c(Cl)c4)c3c2)cs1.Cl` 2

Request: COc1ccc(Nc2nccc(N3CCC(NC(=O)c4cccc(NC(C)=O)c4)C3)n2)cc1 (stereo not shown) 33

And for `COc1ccc(-c2oc3ncnc(N)c3c2-c2ccc(OC)cc2)cc1` ? 52

Okay, and `CNc1nccc(-c2c(-c3ccc(F)cc3)ncn2CCCN2CCOCC2)n1` ? 1

What would you report for `Nc1nccc2scc(-c3ccc4c(c3)CCN4C(=O)Cc3cc(F)ccc3F)c12` ? 21

* * *

test system: LRRK2; details: concentration: 1 μM, replicates: in singlicate; n = 1
# %Inh per entry

{"columns": ["compound", "%Inh"],
 "data": [
  ["CCc1nc(-c2cccc(N(C)S(=O)(=O)c3ccccc3)c2)c(-c2ccnc(Nc3ccc(N4CCN(C(C)=O)CC4)nc3)n2)s1 [GSK1645895]", "0%"],
  ["FC(F)(F)c1ccc(-c2cc(-c3c[nH]nc3-c3ccccn3)ccn2)cc1 [GW599550]", "7%"],
  ["Clc1cc(Nc2ncnc3cc[nH]c23)ccc1OCc1ccccn1", "0%"]
]}

Now for another entry.
// fetch LRRK2 %Inh for Nc1nc(-c2cccnc2)c(-c2ccnc3ccccc23)s1 [GW684083] 0%

* * *

system: MARK4; details: concentration: 1 μM, replicates: in singlicate; n = 1
measure_name: %Inh
Please make sure the unit comes right after the number.

State the recorded %Inh for this entry: `Nc1nc(-c2ccc3c(N)n[nH]c3c2)cc(N2CCC[C@@H](C(=O)Nc3ccccc3)C2)n1.O=C(O)C(F)(F)F.O=C(O)C(F)(F)F` 0%

Field entry: `Fc1cccc(COc2ccc(Nc3ncnc4cc[nH]c34)cc2Cl)c1` 0%

Then this compound: `CS(=O)(=O)CCNCc1ccc(-c2ccc3ncnc(Nc4ccc(OCc5ccccc5)c(Cl)c4)c3c2)o1.Cl` 9%

Similarly, `Cl.Cl.c1ccc(-c2cc3ccncc3cc2OC2CCNCC2)cc1` ? 5%

Let us now turn to `Oc1ccc2ncnc(Nc3ccc(OCc4ccccc4)cc3)c2c1` 0%

* * *

system: LCK; settings: concentration: 1 μM, replicates: in singlicate; n = 1
measure_name: %Inh (%)
All answers are understood in %, so give the number only.

Suppose we examine the compound `c1ccc(-c2ccc3c(-c4ccnc(Nc5ccc6c(c5)OCCO6)n4)cnn3n2)cc1` ; what %Inh value has been reported? 22

And what about the compound `Clc1cccc(-c2nc(Nc3ccncc3)c3ccccc3n2)c1` ? 31

Again, but for CCCc1ccc(S(=O)(=O)NC2CCN(c3ccnc(Nc4ccc(OC)cc4)n3)C2)cc1 (stereo not drawn) 16

* * *

tested on: HCK; settings: concentration: 1 μM, replicates: in singlicate; n = 1
As shown below, each of these molecules has a reported %Inh value.
Hi! Could you send only the number? It should be in %, unit omitted.

Below, 5 molecules whose answers are already recorded.
{"columns": ["molecule", "measurement_unit", "%Inh"],
 "data": [
  ["Cc1cc(N2CCC(NS(=O)(=O)c3ccc(F)cc3)CC2)nc(Nc2cccc(C#N)c2)n1.O=C(O)C(F)(F)F", "%", 0],
  ["CC(C)(C)OC(=O)NC1CCCN(c2cc(-c3ccc4c(N)n[nH]c4c3)nc(N)n2)C1 (stereo not drawn)", "%", 0],
  ["Clc1cccc(-c2nc(Nc3ccncc3)c3ccccc3n2)c1", "%", 26],
  ["CNc1nccc(-c2c(-c3ccc(F)cc3)ncn2C2CCN(C)CC2)n1", "%", 26],
  ["CC(=O)Nc1n[nH]c2ncc(-c3ccccc3)cc12", "%", 9]
]}

Which %Inh value is on record for `Cc1ccc(O)cc1Nc1cc(C(F)(F)F)nc2ccc(-c3ccncc3)cc12` ? 18

Item: `COc1ccc(NC(=O)c2ccc(-c3cc(-c4nnc(C)o4)ccc3C)cc2)cc1` 0

Check `CS(=O)(=O)CCNCc1ccc(-c2ccc3ncnc(Nc4ccc(OCc5ccccc5)c(Cl)c4)c3c2)o1.Cl` too. 18
